All figures here come from PubChem BioAssay AID1159580.

Experiment: chemical genetic growth profiling, strain panel (AID 1159580);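 also: tested at 20 µM; growth read once vehicle control cultures reached saturation at 30 °C; 1 = growth at the plate median or of vehicle wells; lower values mean less growth of the strain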
Details: S. cerevisiae deletion strains, growth OD, locus YMR078C, strain ctf18, active compounds read low
Hit rate of the full screen: of about 5,500 compounds, about 2,000 (36%) were called active. Another 18% or so got no clear call; they are omitted. This is one part of the list.
// reported normalized growth for each item listed
Number, no unit, nothing else.

COc1ccc2c(c1C(C)C)CCC1C(C)(C)C(=O)CCC21C (stereo not drawn) ... 0.96
O=c1cc(-c2ccc(O)cc2)oc2cc(O[C@@H]3O[C@H](CO)[C@@H](O)[C@H](O)[C@H]3O)cc(O)c12 ... 1.01
NC(CSCSCC(N)C(=O)O)C(=O)O (stereo not drawn) ... 0.988

Q: Which value of normalized growth has been reported for CC(C)N(CCC(C(N)=O)(c1ccccc1)c1ccccn1)C(C)C (stereo not drawn) in the records?
Ans: 0.978

Q: // repeat for CCC(c1ccc(O)cc1)C(CC)c1ccc(O)cc1 (stereo not drawn) and report
Ans: 0.994

Q: Please do the same for NS(=O)(=O)c1cc(C2(O)NC(=O)c3ccccc32)ccc1Cl (stereo not drawn) as well.
Ans: 1.02

Q: Try the compound CNC(=O)Oc1cccc2c1OC(C)(C)O2
Ans: 0.99

Q: Please answer likewise for CC(C)c1c(O)c(-c2cc3c(c(C(C)C)c2O)CCC2C(C)(C)CCC[C@]32C)cc2c1CCC1C(C)(C)CCC[C@]21C (stereo partly drawn)
Ans: 1.01

Q: Moving on to the next compound: CC(=O)Oc1ccc2c(c1OC(C)=O)OCC1(O)Cc3c(cc(OC(C)=O)c(OC(C)=O)c3OC(C)=O)C21 (stereo not drawn)
Ans: 0.994

Q: Same question, CCOC(=O)NC1=C(C2CC2)C(=O)C(NC(=O)OCC)=C(C2CC2)C1=O this time
Ans: 0.993

Q: Moving on to the next compound: COC(=O)C1OC(=O)C2OC23C1(C)CCC1C2(C)C(OC(C)=O)CC(OC(C)=O)C(C)(C)C2CC(=O)C13C (stereo not drawn)
Ans: 0.992

* * *

Test: chemical genetic growth profiling, strain panel (AID 1159580)
Conditions: S. cerevisiae deletion strains, growth OD, locus YJL095W, strain BCK1, active compounds read low
Among all 5,500 compounds or so, about 2,000 (36%) were called active. Roughly 18% stayed inconclusive and do not appear here. The list shows a part of the results.
Property Measured: normalized growth
Give the figure by itself; no unit, no explanation.

Cc1c(C)c(C)c(C(O)c2ccccc2)c(C)c1C (stereo unspecified) ... 0.602

Q: I'd like to know its normalized growth. The molecule in question is O=C(Cc1cccs1)NC1C(=O)N2C(C(=O)[O-])=C(C[n+]3ccccc3)CSC12 (stereo unspecified)
Ans: 1.03

Q: Lookup FC(F)(F)c1ccc(N2CCc3ccccc3C2)c(NC(=S)Nc2cc(Cl)cc(Cl)c2)c1
Ans: 1.02

Q: Now consider Oc1c(Br)cc(Br)cc1/C=N\n1cnnc1 and answer again.
Ans: 0.26

Q: Entry FC(F)(F)c1cccc(NC(=S)NN=C2CCCCCC2)c1 please
Ans: 0.887

Q: Also CC(N)C12CC3CC(CC(C3)C1)C2 (stereo unspecified) , if possible.
Ans: 0.989

* * *

Test: chemical genetic growth profiling, strain panel (AID 1159580)
Conditions: S. cerevisiae deletion strains, growth OD, locus YGR092W, strain DBF2, active compounds read low
In all, about 5,500 compounds went through this assay and about 2,000 (36%) were called active. Not shown: some 18% with an inconclusive outcome. The list shows a part of the results.
Here, each record is paired with measured normalized growth data.
I only need the number, thanks.

Look over these answered cases.
COCCCNC(=S)N/N=C\c1cc(Br)ccc1O ... 0.915
O=[N+]([O-])c1cc(Cl)cc([N+](=O)[O-])c1Nc1ccccc1 ... 0.89
Oc1c(Br)cc(Br)cc1C=Nc1ccc(Sc2ccccc2)nc1Sc1ccccc1 ... 0.155
Oc1c(Cl)cc(Cl)cc1/C=N\NC(=S)Nc1cc(C(F)(F)F)cc(C(F)(F)F)c1 ... 0.0943
Cc1cc(Cl)ccc1NNC(=O)c1sccc1Cl ... 0.7

Q: Look at this molecule and give its reported normalized growth. O=S(=O)(CS(=O)(=O)Oc1ccc(Cl)c(Cl)c1)Oc1ccc(Cl)c(Cl)c1
Ans: 0.905

Q: Now consider O=C1Nc2ccccc2/C1=C/c1ccc(Oc2ccccc2)nc1 and answer again.
Ans: 0.803

Q: Ok, now O=C1Nc2ccccc2/C1=C\c1cccc([N+](=O)[O-])c1
Ans: 0.921

Q: Request: O=C1Nc2ccccc2/C1=C\c1ccc(Cl)cc1
Ans: 0.82

Q: Again, but for COc1ccc(/C=C2/C(=O)Nc3ccccc32)cc1
Ans: 0.733

Q: Try this molecule too: CCCCNC(=S)N/N=C\c1cc(Cl)cc(Cl)c1O
Ans: 0.35

Q: // query: FC(F)(F)c1ccc(N2CCc3ccccc3C2)c(NC(=S)Nc2cc(Cl)cc(Cl)c2)c1
Ans: 0.869

Q: Here is the next molecule: OC(COc1ccc(F)cc1)(c1ccccc1)c1ccccc1
Ans: 0.939

Q: Repeat for the following molecule: Cc1cc(Oc2ccc(C(F)(F)F)cc2NS(C)(=O)=O)cc(C)c1Cl
Ans: 0.889

Q: And for CCOC(=O)N/N=C\c1cc(Cl)cc(Cl)c1O ?
Ans: 0.251

Q: Try this molecule next: c1ccc(-c2nnc(-c3ccccn3)nc2-c2ccccc2)cc1
Ans: 0.473

Q: Check Cc1ccc(C)n1-c1ccc(/C=C2/C(=O)Nc3ccccc32)cc1 too.
Ans: 0.839

Q: What do you get for Oc1c(Br)cc(Br)cc1/C=N\n1cnnc1 ?
Ans: 0.116

* * *

Assay: chemical genetic growth profiling, strain panel (AID 1159580);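 also: tested at 20 µM; growth read once vehicle control cultures reached saturation at 30 °C; 1 = growth at the plate median or of vehicle wells; lower values mean less growth of the strain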
Conditions: S. cerevisiae deletion strains, growth OD, locus YJL129C, strain trk1
Hit rate of the full screen: of about 5,500 compounds, about 2,000 (36%) were called active. Roughly 18% stayed inconclusive and do not appear here. No stated cut-off is given here; in the data, active means normalized growth mostly below about 0.91 (no sharp cut-off); inconclusive means no clear call, values can overlap the other calls; inactive means mostly above about 0.92. The list shows a part of the results.
Give one outcome, nothing more. List: YES (active), NO (inactive)

CCCC(C)(COC(N)=O)COC(=O)NC(C)C (stereo not drawn) ... NO
CCOCN(C(=O)CCl)c1c(C)cccc1CC ... NO
C[C@@H]1CC[C@@]2(NC1)O[C@H]1C[C@H]3C4CC=C5C[C@@H](O)CC[C@]5(C)C4CC[C@]3(C)C1[C@@H]2C (stereo partly drawn) ... YES
C[C@]12C=CC(=O)C=C1CCC1C2[C@@H](O)C[C@@]2(C)C1CC[C@]2(O)C(=O)COP(=O)(O)O (stereo partly drawn) ... NO
CC(C)c1c(O)ccc2c1CCC1C(C)(C)CCC[C@]21C (stereo partly drawn) ... YES
CCC(=O)c1c(O)cc(O)cc1O ... NO
C[C@]12CCC3c4ccc(O)cc4CCC3C1CC[C@@H]2O (stereo partly drawn) ... NO
C=C1CCC2(OC1)OC1CC3C4CC=C5CC(O)CC(O)C5(C)C4CCC3(C)C1C2C (stereo not drawn) ... YES

Q: What call does the record list for CC1(C)C(=O)C=C[C@@]2(C)C1C[C@@H](O)[C@]1(C)C2CC[C@@]2(C)[C@H](c3ccoc3)OC(=O)[C@H]3O[C@]321 (stereo partly drawn) ?
Ans: NO

* * *

Test: chemical genetic growth profiling, strain panel (AID 1159580);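 also: tested at 20 µM; growth read once vehicle control cultures reached saturation at 30 °C; 1 = growth at the plate median or of vehicle wells; lower values mean less growth of the strain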
Conditions: S. cerevisiae deletion strains, growth OD, locus YLR113W, strain HOG1
The campaign covered roughly 5,500 compounds. About 2,000 (36%) were called active. Not shown: some 18% with an inconclusive outcome. No stated cut-off is given here; in the data, active means normalized growth mostly below about 0.91 (no sharp cut-off); inconclusive means no clear call, values can overlap the other calls; inactive means mostly above about 0.92. Some of the results follow.
Could you please pick one outcome from this set? active, inactive

CC(=O)Oc1ccc2c(c1OC(C)=O)OCC1(O)Cc3c(cc(OC(C)=O)c(OC(C)=O)c3OC(C)=O)C21 (stereo not given) ... inactive

Q: Short answer needed: outcome of this test for CC(=O)NC(Cc1ccccc1)C(=O)O (stereo not given) ?
Ans: inactive

* * *

# reported normalized growth; entries follow
Assay: chemical genetic growth profiling, strain panel (AID 1159580);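 also: tested at 20 µM; growth read once vehicle control cultures reached saturation at 30 °C; 1 = growth at the plate median or of vehicle wells; lower values mean less growth of the strain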
Details: S. cerevisiae deletion strains, growth OD, locus YMR307W, strain GAS1, active compounds read low
Hit rate of the full screen: of about 5,500 compounds, about 2,000 (36%) were called active. About 18% were inconclusive and are not listed. This is one part of the list.

Cc1cc(C)c(CSCCNC(=O)Nc2ccc(F)cc2F)c(C)c1 ... 1.29 (inactive)
CCN1C[C@]2(C)CC[C@H](OC)[C@]34C2[C@H](O)[C@]2(OCO[C@@]25C[C@H](OC)[C@H]2C[C@]3(O)C5[C@H]2O)C14 ... 1.07 (inactive)

Q: Consider the molecule shown here: CC1CC[C@@]2(OC1)O[C@H]1CC3C4CC[C@@H]5CC(=O)CC[C@]5(C)C4CC[C@]3(C)[C@H]1[C@@H]2C (stereo partly drawn) What is its recorded normalized growth?
Ans: 0.94 (inactive)

Q: Same thing, different molecule: C1COC(NC(C2CC2)C2CC2)=N1
Ans: 0.956 (inactive)

Q: Param item: CC1(C)C(=O)C=C[C@@]2(C)C1CC(=O)[C@]1(C)C2CC[C@@]2(C)[C@H](c3ccoc3)OC(=O)[C@H]3O[C@]321 (stereo partly drawn)
Ans: 0.868 (inactive)

Q: Same again, this time with CC1(C)C(=O)C=C[C@@]2(C)C1C=C[C@]1(C)C2CC[C@@]2(C)[C@H](c3ccoc3)OC(=O)C3OC321 (stereo partly drawn)
Ans: 0.81 (inactive)

Q: Next molecule up: CC(=O)O[C@@H]1CC2C(C)(C)C(=O)C=C[C@]2(C)C2CC[C@@]3(C)[C@H](c4ccoc4)OC(=O)[C@H]4O[C@]43[C@@]21C (stereo partly drawn)
Ans: 0.918 (inactive)

Q: NC(=NCCC[C@H](N)C(=O)O)N[N+](=O)[O-] , same question.
Ans: 0.982 (inactive)
